All values here come from the supplement of paper PMC12632987.

TARGET: GABARAPL2, P60520
Sequence (P60520 whole entry, the tested form may be a part): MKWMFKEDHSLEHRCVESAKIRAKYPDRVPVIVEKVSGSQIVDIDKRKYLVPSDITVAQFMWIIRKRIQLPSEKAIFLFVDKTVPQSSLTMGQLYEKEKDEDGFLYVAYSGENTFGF
PROCEDURE TEXT: median log2 fold change of GCK-ALFA target abundance (FLAG IP / Myc IP barcode read proportion) (log2 ratio); each designed protein is fused to an ALFA-tag nanobody in HEK293 cells to bring the named protein to FLAG-tagged glucokinase (GCK); Myc marks an untargeted standard; higher = target protein stabilised (more abundant)
EXPERIMENTAL CONDITIONS: target protein: 3xFLAG-MCP-GCK-ALFA reporter; HEK293 landing pad (RPLP)
MEASUREMENT TYPE: median log2 fold change
Reply briefly: the number, and no unit.

BINDER: GBRAPL2_63_7392 (protein) SLLDKVLKLLSRLGPVPLDLAERFEELAEELSDEEELAKAIAEAVQEDNPHIDEERRKILEEAILKALTEDSEIAIKIASAIINGAPMEEIEKLLEELKK
VALUE OBSERVED: 0.0699

Okay, next one:
Please look up its median log2 fold change: GBRAPL2_53_7346 (protein) MKKVDIAHPDKEKLAKTLEEIFKILEENGVKAKVTVTTEDGNVIVLEGDLEEIREKTVKLAKETEVLVEIELPDDAEETVEKIIDVALKNGATVSVDGLE
0.2
